# studySystem: 5-HT3a receptor expressed in HEK-293T cells (Homo sapiens (Human))
# Sequence (P46098 24-478): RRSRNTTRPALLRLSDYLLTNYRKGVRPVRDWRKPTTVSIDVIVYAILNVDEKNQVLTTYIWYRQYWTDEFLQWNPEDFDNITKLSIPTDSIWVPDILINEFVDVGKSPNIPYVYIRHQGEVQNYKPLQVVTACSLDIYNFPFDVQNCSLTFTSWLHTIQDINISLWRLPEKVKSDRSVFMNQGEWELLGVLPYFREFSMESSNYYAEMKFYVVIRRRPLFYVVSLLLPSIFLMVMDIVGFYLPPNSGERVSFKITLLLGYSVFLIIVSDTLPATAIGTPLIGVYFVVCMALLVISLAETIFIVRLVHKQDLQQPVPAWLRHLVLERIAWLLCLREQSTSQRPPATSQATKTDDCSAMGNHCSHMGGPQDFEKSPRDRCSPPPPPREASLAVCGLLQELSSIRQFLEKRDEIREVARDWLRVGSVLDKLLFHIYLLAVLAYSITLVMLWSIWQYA
# protocolDetails: Inhibition of Ca flux activity of 5-HT3 in vitro assay
# measurementParameters: approximate IC50; calcium flux, 5HT 216 nM, HEK-293T cells transfected with 5-HT3a
Consider the following molecules; for each one, report its pIC50.
Keep in mind that pIC50 stands for -log10 of concentration in molar terms.

# input Consider the molecule shown here: CN1[C@@H]2COC[C@H]1C[C@@H](NC(=O)c1cn(-c3ccccn3)c3ccccc13)C2 What is its recorded pIC50?
# output 8.96

# input Also CN1[C@@H]2COC[C@H]1C[C@@H](NC(=O)c1cn(-c3ccc[n+]([O-])c3)c3ccccc13)C2 ?
# output 8.87

# input Param item: CN1[C@@H]2COC[C@H]1C[C@@H](OC(=O)c1cn(-c3cn[nH]c3)c3ccccc13)C2
# output 9.34

# input What do you get for CN1[C@@H]2COC[C@H]1C[C@@H](OC(=O)c1cn(-c3cnn(C)c3)c3ccccc13)C2 ?
# output 8.92
